// growth lookup, one value per entry
system: U251 CNS; assay: NCI-60 one-dose screen, 48 h (100 = growth as untreated, 0 = no growth, -100 = all killed); conditions: 10 µM unless noted
This is part of a sample that, as a whole, favours compounds with a hit. Of some 83,000 tested, about 20% had one in any assay.
Provide only the numeric value, understood in %.

[[record]]
structuresmiles = "C#CC[C@@H]1C[C@]2(C)[C@H]3CC=C4[C@H]5[C@@H](C)[C@H](C)CC[C@]5(C(=O)NCCCN5CCN(CCCN)CC5)CC[C@@]4(C)[C@]3(C)CC[C@H]2C(C)(C)[C@H]1OC(C)=O"
measurementunit = "%"
quantitativereadout = -75.8

[[record]]
structuresmiles = "Cc1ccc(NC(=O)Cn2nncc2CN2C(=O)CSC2=O)cc1C"
measurementunit = "%"
quantitativereadout = 103

[[record]]
structuresmiles = "COc1ccc(/C(=C\\c2cc(OC)c(OC)c(OC)c2)C(=O)N2CCCNCC2)cc1"
measurementunit = "%"
quantitativereadout = 109


q: Reported growth for Cc1ccc(-c2nc3ccccc3c(=O)n2/N=C/c2cccc3ccccc23)cc1 : what is it?
a: 77

* * *

// growth lookup, one value per entry
Test system: ACHN renal
Test: NCI-60 one-dose screen, 48 h (100 = growth as untreated, 0 = no growth, -100 = all killed)
Conditions: 10 µM unless noted
Protocol: Growth inhibition of the ACHN human tumor cell line is measured as a screen for anti-cancer activity. Cells are grown in 96 well plates and exposed to the test compound for 48 hours. Compounds are tested at a single concentration, which is 10^-5 M for most compounds. The reported endpoint is percent growth (GI% or GIPRCNT), where numbers from 0 - 100% represent growth inhibition, and numbers from -100% - 0 represent cell death. For example, a value of 40 represents 60% growth inhibition. […]
The panel holds about 83,000 compounds, 20% with a hit somewhere; the sample as a whole holds those more often.
Provide only the numeric value, understood in %.

Solved entries (count: 6):
[[record]]
compound = "COc1cccc(NC(=O)[C@H](C(C)C)n2c(=O)[nH]c3ccccc3c2=O)c1"
measuredparameter = "growth"
quantitativereadout = 104

[[record]]
compound = "COc1cc(C2CC(c3ccc(Cl)cc3)=NN2C=O)ccc1OS(=O)(=O)c1ccc(C)cc1 (stereo not drawn)"
measuredparameter = "growth"
quantitativereadout = 90.9

[[record]]
compound = "CCCCc1n(Cc2ccc3ccccc3n2)cc[n+]1Cc1ccc2ccccc2n1"
measuredparameter = "growth"
quantitativereadout = 96.1

[[record]]
compound = "Brc1cccc(-n2ncc3c(Nc4ccc(-c5nnc(-c6ccccc6)o5)cc4)ncnc32)c1"
measuredparameter = "growth"
quantitativereadout = 96.7

[[record]]
compound = "C=CCn1c(SCC(=O)Nc2ccc(/C(C)=N\\O)cc2)nnc1-c1cc(-c2ccc(Cl)cc2)nc2ccccc12"
measuredparameter = "growth"
quantitativereadout = 20.2

[[record]]
compound = "COc1ccc2[nH]cc(C(c3ccc(Cl)cc3)N3CCCC3)c2c1 (stereo not drawn)"
measuredparameter = "growth"
quantitativereadout = 93.1


q: Reported growth for O=C1OCC2=C1C(c1cccc(Br)c1)c1cc3c(cc1N2CCO)OCCO3 (stereo not drawn) : what is it?
a: 33.8

q: Reported growth for CNC(=O)c1ccccc1Sc1ccc2c(/C=C/c3ccccn3)n[nH]c2c1 : what is it?
a: 31.2

* * *

Test system: SW-620 colon
Test: NCI-60 one-dose screen, 48 h (100 = growth as untreated, 0 = no growth, -100 = all killed)
Conditions: 10 µM unless noted
Description: Growth inhibition of the SW-620 human tumor cell line is measured as a screen for anti-cancer activity. Cells are grown in 96 well plates and exposed to the test compound for 48 hours. Compounds are tested at a single concentration, which is 10^-5 M for most compounds. The reported endpoint is percent growth (GI% or GIPRCNT), where numbers from 0 - 100% represent growth inhibition, and numbers from -100% - 0 represent cell death. For example, a value of 40 represents 60% growth inhibition. […]
Compounds without any hit were thinned out: in the full panel of roughly 83,000, 20% have a hit.
measuredParameter: growth (%)
Provide only the numeric value, understood in %.

[[record]]
structuresmiles = "CN1CCN(Cc2ccc(NC(=O)c3cnc(F)c(C#Cc4cnc(N)c5ncccc45)c3)cc2C(F)(F)F)CC1"
target = "SW-620 colon"
measuredparameter = "growth"
quantitativereadout = 8.66


q: # get_value(readout= growth, system= SW-620 colon) for O=C1C=CC(=O)N1CO
a: 115

q: # get_value(readout= growth, system= SW-620 colon) for Cc1cc(N=Nc2ccc(-c3ccc(N=Nc4ccc(O)c(C(=O)O)c4)cc3)cc2)c(N)c(N=Nc2ccc(C(=O)O)cc2)c1N
a: 95.6

q: # get_value(readout= growth, system= SW-620 colon) for CCN(CC)CCNc1c(C)cc(CO)c(Cl)c1C
a: 105

q: # get_value(readout= growth, system= SW-620 colon) for O=C(Nc1ccc(OS(=O)(=O)c2ccc(F)cc2)cc1)C12CC3CC(CC(C3)C1)C2
a: 39.4

* * *

tested on: OVCAR-5 ovarian; experiment: NCI-60 one-dose screen, 48 h (100 = growth as untreated, 0 = no growth, -100 = all killed); conditions: 10 µM unless noted
This is part of a sample that, as a whole, favours compounds with a hit. Of some 83,000 tested, about 20% had one in any assay.
Flag rule - growth less than 90% flags MET; the remaining entries get NOT MET.

[[record]]
molecule = "CC(=O)c1nn(-c2ccccc2)/c(=N\\N=C\\c2coc3ccc(F)cc3c2=O)s1"
labelvalue = "NOT MET"


q: Given Cc1c(C)c(C)c([N+](=O)[O-])c([N+](=O)[O-])c1C , is recorded growth strictly lower than 90%?
a: MET

q: Given Nc1nc(N)c2cc(Sc3ccc(Cl)cc3)ccc2n1 , is recorded growth strictly lower than 90%?
a: MET

q: Given Oc1ccc(Nc2ncnc3c2sc2ncccc23)cc1 , is recorded growth strictly lower than 90%?
a: MET

* * *

system: COLO 205 colon; assay: NCI-60 one-dose screen, 48 h; conditions: 10 µM unless noted
This is part of a sample that, as a whole, favours compounds with a hit. Of some 83,000 tested, about 20% had one in any assay. Calls of active or inactive are those of the source. The calls were made as follows: active = growth percent below 10; inactive = the rest.
Pick one and only one: true for active, false for inactive

[[record]]
molecule = "O=C(CCCCCCc1nc2ccc(Br)cc2[nH]1)NO"
labelvalue = "true"

[[record]]
molecule = "CCCCn1c(C)nc2ccc(Nc3nc(Cl)nc4nc[nH]c34)cc21"
labelvalue = "false"

[[record]]
molecule = "CC(=O)O[C@H]1[C@H](CC#CC#CC[C@@H]2C[C@]3(C)[C@H]4CC=C5[C@H]6[C@@H](C)[C@H](C)CC[C@]6(C(=O)NCCCCCCCCN)CC[C@@]5(C)[C@]4(C)CC[C@H]3C(C)(C)[C@H]2OC(C)=O)C[C@]2(C)[C@H]3CC=C4[C@H]5[C@@H](C)[C@H](C)CC[C@]5(C(=O)NCCCCCCCCN)CC[C@@]4(C)[C@]3(C)CC[C@H]2C1(C)C"
labelvalue = "false"


q: Short answer needed: outcome of this test for NCCCOc1cc2ccccc2cc1C(=O)NCCCOc1cc2ccccc2cc1C(=O)Nc1ccc(Cl)cc1O ?
a: true

q: Short answer needed: outcome of this test for Cc1ccc(S(=O)(=O)NC(CCC(=O)Nc2ccc(Cl)cc2)C(=O)Nc2ccc(Cl)cc2)cc1 (configuration not stated) ?
a: false

q: Short answer needed: outcome of this test for COc1cc2c(cc1OC)C(=O)C(Br)CC2 (configuration not stated) ?
a: false

q: Short answer needed: outcome of this test for C[C@@H]1C[C@H](N)C[C@H](c2ccncc2NC(=O)c2ccc(F)c(-c3c(F)cccc3F)n2)C1 ?
a: true

q: Short answer needed: outcome of this test for CNCCCNc1ccnc2cc(Cl)ccc12 ?
a: true

q: Short answer needed: outcome of this test for COc1cc(Nc2ccnc3ccc(Br)cc23)cc(OC)c1OC ?
a: false

q: Short answer needed: outcome of this test for CC(C)NCCCCCNc1cc(O)cc2cccnc12 ?
a: true

q: Short answer needed: outcome of this test for NC(=O)c1noc(C(=O)c2ccccc2)c1N ?
a: false

q: Short answer needed: outcome of this test for N[C@@H](CO)C(=O)O ?
a: false

q: Short answer needed: outcome of this test for COc1cc(/C=C/C(=O)c2ccc(NC(=O)CSc3nnc(-c4ccc(Cl)cc4)n3-c3ccccc3)cc2)cc(OC)c1OC ?
a: false

q: Short answer needed: outcome of this test for Cc1cc(C)c(C#N)c(SCC(=O)c2sc3c(C#N)c(C)cc(C)[n+]3c2[O-])n1 ?
a: true

q: Short answer needed: outcome of this test for c1ccc(-c2[nH]c3ccccc3c2-c2ccccc2)cc1 ?
a: false

q: Short answer needed: outcome of this test for Cn1nc(C(F)(F)F)cc1-c1c[nH]c(OCc2ccc(Cl)cc2)c(-c2ccc(Cl)c(C(F)(F)F)c2)c1=O ?
a: true

q: Short answer needed: outcome of this test for COc1ccc(/C(=C\c2ccc3c(c2)OCO3)C(=O)Nc2nc3ccc(F)cc3s2)cc1OC ?
a: false

q: Short answer needed: outcome of this test for COc1ccc2[nH]c(O)c(/C=c3/ccc4c(c3)N=C(c3ccc(F)cc3)N=4)c2c1 ?
a: false

All values here come from PubChem BioAssay (NCI).
